- Test system: XIP peptide (Xip251-270) binding
- experimental.details: small-molecule binders of XIP peptide, primary screen, biochemical, small-molecule microarray, fluorescence 635/667 nm, 0.1 µg/mL protein (AID 1182)
- test.conditions: fluorescent protein binding, 635 nm, higher = more signal, called active from +8 up or from −8 down
Give t when the value for composite z-score is at least 0.7. Give f when it is less.

Entry `COC(=O)C(CC#Cc1ccc2c(c1)[C@]1(C(=O)N2)[C@H](c2ccccc2OCCO)N2[C@H](c3ccccc3)[C@H](c3ccccc3)OC(=O)[C@H]2[C@@H]1C(=O)N1CCCCCCC1)C(=O)OC` : is its composite z-score no less than 0.7?
t

Entry `O=C1O[C@H](c2ccccc2)[C@H](c2ccccc2)N2[C@H]1[C@@H](C(=O)Nc1nc3ccccc3s1)[C@]1(C(=O)Nc3ccc(C#CCCO)cc31)[C@H]2c1ccccc1OCCO` : is its composite z-score no less than 0.7?
t

Entry C[C@@H](OCc1ccccc1)C1NC(=O)[C@@]23C(=O)N[C@@H](Cc4ccccc4)C2[C@H](C)[C@@]2(C)O[C@H]2C3/C=C/C/C=C\CNC(=O)[C@@H]2CCCN2C1=O (stereo partly specified) : is its composite z-score no less than 0.7?
f

Entry `COCCCNC(=O)[C@@]1(CCS(=O)(=O)c2ccccc2)N=C(c2ccc(OCCCO)cc2)O[C@H]1c1ccccc1CN=[N+]=[N-]` : is its composite z-score no less than 0.7?
t

Entry `COCCCN1C(=O)[C@@]2(Cc3ccccc31)c1ccccc1C(=O)N(Cc1ccccc1Cl)[C@H]2c1ccc(CO)cc1` : is its composite z-score no less than 0.7?
f

====

- experimental.details: small-molecule microarray binders of probe aDKK1, primary screen, biochemical, biotinylated probe, 635/667 nm fluorescence (AID 1099);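 also: score merges 667nm spot fluorescence with signal to noise across triplicate slides; reference of the scale not given here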
- test.conditions: higher = more signal
Class boundaries, taken from values of composite z-score, are as follows: zone 1 = under 0.2, zone 2 = from 0.2 up to 0.4, zone 3 = 0.4 and over

Form field 'band' for C=CCC(OC(C)=O)[C@@H]1[C@@H](N(Cc2cccc3ccccc23)C(=O)c2cccc3ccccc23)c2cc(OCCCO)ccc2N1C(=O)Cc1ccc(OC)cc1 (stereo partly drawn)
zone 1

Form field 'band' for `C=CCN1C(=O)[C@@]2(O[C@@H](CCO)[C@H]([Si](C)(C)c3ccc(OC)cc3)[C@H]2C)c2cc(N(C=O)c3ccccc3)ccc21`
zone 2

Form field 'band' for `C=C(CCCC)/C(=C/C[C@@H](OC(=O)c1ccncc1)c1ccc(OCCO)cc1)c1cnc2ccccc2c1`
zone 2

Form field 'band' for `COc1ccc([Si](C)(C)[C@H]2[C@H](CC(=O)N(CCO)Cc3ccccc3)O[C@@]3(C(=O)N(Cc4ccc(N5CCOC5=O)cc4)c4ccccc43)[C@@H]2C)cc1`
zone 1

Form field 'band' for `C=C(/C(=C/C[C@H](OC(=O)c1ccncc1)c1cccc(OCCO)c1)c1cc(C(=O)OC)ccc1OC)C(C)C`
zone 2

Form field 'band' for `Cc1ccc(N2C(=O)c3ccccc3[C@](C)(C(=O)NC3CC3)[C@@H]2c2ccc(CO)cc2)nc1`
zone 3

Form field 'band' for `C=CC[C@@H](OC(=O)Nc1ccc(SC)cc1)c1ccc(OCCO)cc1`
zone 2

Form field 'band' for `O=C1O[C@@H](c2ccccc2)[C@@H](c2ccccc2)N2[C@@H](c3ccc(OCCO)cc3)[C@]3(C(=O)Nc4ccc(C#CC5(O)CCCCCC5)cc43)[C@@H](C(=O)NC[C@H](O)c3ccccc3)[C@H]12`
zone 3

Form field 'band' for `O=C(NC1CC1)[C@@H]1c2ccccc2C(=O)N(Cc2ccccc2C(F)(F)F)[C@H]1c1ccc(CO)cc1`
zone 3

Form field 'band' for `O=C1c2ccccc2[C@@]2(Cc3ccccc3N(CC(F)(F)F)C2=O)[C@H](c2ccc(CO)cc2)N1Cc1ccccc1C(F)(F)F`
zone 3

Form field 'band' for `COc1ccc([Si](C)(C)[C@@H]2[C@@H](CCn3cc(CCO)nn3)O[C@]3(C(=O)N(Cc4ccc(N5C(=O)c6cccc7cccc5c67)cc4)c4ccccc43)[C@H]2C)cc1`
zone 1
